Target protein (sequence): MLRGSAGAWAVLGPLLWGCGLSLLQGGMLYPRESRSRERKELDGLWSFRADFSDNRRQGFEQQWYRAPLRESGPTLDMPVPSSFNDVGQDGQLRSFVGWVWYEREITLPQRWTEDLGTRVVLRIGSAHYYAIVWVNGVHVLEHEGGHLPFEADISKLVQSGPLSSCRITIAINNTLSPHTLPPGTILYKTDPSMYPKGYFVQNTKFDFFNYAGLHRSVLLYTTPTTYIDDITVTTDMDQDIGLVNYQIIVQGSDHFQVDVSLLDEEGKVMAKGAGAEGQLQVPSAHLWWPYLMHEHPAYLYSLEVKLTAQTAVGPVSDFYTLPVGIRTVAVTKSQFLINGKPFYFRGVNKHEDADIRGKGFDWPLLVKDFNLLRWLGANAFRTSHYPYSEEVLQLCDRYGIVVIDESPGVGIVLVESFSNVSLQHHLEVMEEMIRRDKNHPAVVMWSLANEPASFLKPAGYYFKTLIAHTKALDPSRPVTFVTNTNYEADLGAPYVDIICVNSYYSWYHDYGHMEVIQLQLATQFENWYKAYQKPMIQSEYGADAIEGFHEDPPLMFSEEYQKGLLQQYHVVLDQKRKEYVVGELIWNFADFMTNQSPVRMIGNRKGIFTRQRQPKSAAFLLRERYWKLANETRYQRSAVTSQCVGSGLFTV
assay readout: IC50 (µM)
Numbers only, in µM.

Challenge: Give me measured IC50, please, for this molecule: "COc1ccc(-c2nc3ncc(Cl)cc3[nH]2)c(O)c1"
Response given: 114

Reference source: BindingDB's records for doi:10.1016/j.bioorg.2016.01.007
